The reported numbers originate from paper PMC5761851.

- tested.target: PDE5 (Homo sapiens)
- Construct: Eurofins Pharma Discovery Services (contract assay service)
- assay.notes: BioPrint panel: PDE5
- Assay type: biochemical
- assay.conditions: dose response, duplicate; read-out: Inhibition of indicated activity (IC50, μM): PDE5
recorded.metric: IC50
The reply must contain the numeric value and, after it, the unit.

QUERY: Recorded IC50 of Cn1cc(-c2cccc(-c3nc(C(=O)NC4C5CC6CC4CC(O)(C6)C5)c(N)nc3N)c2)cn1 (stereo not shown) [compound 4] , please.
RESULT: 0.92 µM

###

- tested.target: FGFR1 (Homo sapiens, UniProt P11362)
- Construct: purchased Eurofins Pharma Discovery Services (KinaseProfiler; Cerep BioPrint panel)
- Sequence (P11362 22-822): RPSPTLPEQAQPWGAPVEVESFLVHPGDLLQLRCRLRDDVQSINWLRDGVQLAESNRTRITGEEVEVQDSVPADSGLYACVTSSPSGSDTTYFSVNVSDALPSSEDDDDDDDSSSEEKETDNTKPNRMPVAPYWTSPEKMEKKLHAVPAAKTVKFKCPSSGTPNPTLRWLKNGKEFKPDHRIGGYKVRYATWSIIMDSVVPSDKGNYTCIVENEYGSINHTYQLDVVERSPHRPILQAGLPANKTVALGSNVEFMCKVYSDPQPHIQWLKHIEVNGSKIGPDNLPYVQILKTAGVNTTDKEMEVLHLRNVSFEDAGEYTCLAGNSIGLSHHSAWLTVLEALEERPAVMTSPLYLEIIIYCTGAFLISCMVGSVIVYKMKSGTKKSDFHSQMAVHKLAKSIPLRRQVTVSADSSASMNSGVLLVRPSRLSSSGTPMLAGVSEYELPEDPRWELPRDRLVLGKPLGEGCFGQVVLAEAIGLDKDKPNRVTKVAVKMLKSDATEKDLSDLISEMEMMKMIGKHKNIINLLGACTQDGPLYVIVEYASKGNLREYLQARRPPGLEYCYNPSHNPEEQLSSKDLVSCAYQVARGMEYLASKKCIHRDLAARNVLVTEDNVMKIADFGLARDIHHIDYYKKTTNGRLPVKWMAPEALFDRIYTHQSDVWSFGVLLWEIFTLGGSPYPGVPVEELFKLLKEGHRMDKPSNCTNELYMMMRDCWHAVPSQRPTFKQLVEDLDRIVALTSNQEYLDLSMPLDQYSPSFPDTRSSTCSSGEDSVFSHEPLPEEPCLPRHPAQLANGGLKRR
- assay.notes: kinase selectivity panel
- Assay type: biochemical
- assay.conditions: read-out: percentage of control activity (POC), FGFR1
Labelling field: enter Met if recorded remaining activity at 10 µM is less than 80%. Enter Not met if it equals or exceeds that cut-off.

QUERY: I wonder whether COc1c(NC(=O)c2ccc(C)c(-c3nnc4c(NCC(C)(C)C)nccn34)c2)cc(C(C)(C)C)cc1NS(C)(=O)=O [compound 7, reference compound] has remaining activity at 10 µM below 80%. Can you tell?
RESULT: Not met

QUERY: Does the reported remaining activity at 10 µM of the following molecule sit strictly below 80%? CS(=O)(=O)N1CCN(c2ccc(Nc3ncc(C(N)=O)c(NC4CC4)n3)cc2)CC1
RESULT: Met

QUERY: hey, is remaining activity at 10 µM for Cn1cc(-c2cccc(-c3nc(C(=O)NC4C5CC6CC4CC(O)(C6)C5)c(N)nc3N)c2)cn1 (centres unmarked) lower than 80% or not?
RESULT: Not met

QUERY: Does this molecule meet the criterion remaining activity at 10 µM < 80%? Cc1ccc(C(=O)NCC2CC2)cc1-c1ccc2c(c1)NC(=O)C21CCCC1
RESULT: Not met

###

- tested.target: TrkA (Homo sapiens)
- Construct: Eurofins Pharma Discovery Services (contract assay service)
- Sequence (P04629 33-796, species assumed): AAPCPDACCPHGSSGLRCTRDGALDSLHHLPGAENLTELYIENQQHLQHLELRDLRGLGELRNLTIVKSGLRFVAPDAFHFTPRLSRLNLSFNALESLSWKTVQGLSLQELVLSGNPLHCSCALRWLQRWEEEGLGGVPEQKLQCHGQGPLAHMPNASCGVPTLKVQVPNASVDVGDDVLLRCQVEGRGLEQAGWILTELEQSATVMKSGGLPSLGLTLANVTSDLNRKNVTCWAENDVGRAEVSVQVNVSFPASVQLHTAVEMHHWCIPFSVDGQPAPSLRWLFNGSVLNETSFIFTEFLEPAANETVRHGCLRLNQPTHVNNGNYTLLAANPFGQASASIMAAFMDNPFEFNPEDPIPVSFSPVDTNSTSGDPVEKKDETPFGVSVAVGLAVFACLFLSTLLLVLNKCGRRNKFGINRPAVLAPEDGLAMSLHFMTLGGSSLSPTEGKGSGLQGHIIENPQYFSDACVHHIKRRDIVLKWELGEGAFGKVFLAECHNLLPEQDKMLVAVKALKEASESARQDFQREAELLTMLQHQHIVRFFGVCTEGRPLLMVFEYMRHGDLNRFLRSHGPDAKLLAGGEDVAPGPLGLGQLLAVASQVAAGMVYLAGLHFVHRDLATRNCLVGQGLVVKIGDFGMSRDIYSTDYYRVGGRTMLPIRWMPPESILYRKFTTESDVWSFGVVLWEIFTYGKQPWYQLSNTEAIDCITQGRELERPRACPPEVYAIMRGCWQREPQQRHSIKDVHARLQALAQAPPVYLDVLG
- assay.notes: kinase selectivity panel
- Type: biochemical
- assay.conditions: 10 μM; read-out: percentage of control activity (POC), TrkA
recorded.metric: remaining activity at 10 µM (%)
Lab book: enter the figure in %, no units written.

QUERY: Return remaining activity at 10 µM measured with TrkA (Homo sapiens) given this compound: COc1c(NC(=O)c2ccc(C)c(-c3nnc4c(NCC(C)(C)C)nccn34)c2)cc(C(C)(C)C)cc1NS(C)(=O)=O [compound 7, reference compound]
RESULT: 68

QUERY: Find the measured remaining activity at 10 µM: item Cc1ccc(C(=O)NCC2CC2)cc1-c1ccc2c(c1)NC(=O)C21CCCC1 , target or system TrkA (Homo sapiens).
RESULT: 67

QUERY: # value lookup — system TrkA (Homo sapiens), readout remaining activity at 10 µM, item Cn1cc(-c2cccc(-c3nc(C(=O)NC4C5CC6CC4CC(O)(C6)C5)c(N)nc3N)c2)cn1 (centres unmarked)
RESULT: 14

QUERY: Please provide the recorded remaining activity at 10 µM for CS(=O)(=O)N1CCN(c2ccc(Nc3ncc(C(N)=O)c(NC4CC4)n3)cc2)CC1 , tested on TrkA (Homo sapiens).
RESULT: 1

QUERY: # value lookup — system TrkA (Homo sapiens), readout remaining activity at 10 µM, item CC(C)(C)N1CCC(c2cc(-c3ccc(F)cc3Cl)c3cc[n+]([O-])c(-c4c(Cl)cccc4Cl)c3n2)CC1
RESULT: 91

###

- tested.target: Plk3 (Homo sapiens)
- Construct: purchased Eurofins Pharma Discovery Services (KinaseProfiler; Cerep BioPrint panel)
- Sequence (Q9H4B4 whole entry): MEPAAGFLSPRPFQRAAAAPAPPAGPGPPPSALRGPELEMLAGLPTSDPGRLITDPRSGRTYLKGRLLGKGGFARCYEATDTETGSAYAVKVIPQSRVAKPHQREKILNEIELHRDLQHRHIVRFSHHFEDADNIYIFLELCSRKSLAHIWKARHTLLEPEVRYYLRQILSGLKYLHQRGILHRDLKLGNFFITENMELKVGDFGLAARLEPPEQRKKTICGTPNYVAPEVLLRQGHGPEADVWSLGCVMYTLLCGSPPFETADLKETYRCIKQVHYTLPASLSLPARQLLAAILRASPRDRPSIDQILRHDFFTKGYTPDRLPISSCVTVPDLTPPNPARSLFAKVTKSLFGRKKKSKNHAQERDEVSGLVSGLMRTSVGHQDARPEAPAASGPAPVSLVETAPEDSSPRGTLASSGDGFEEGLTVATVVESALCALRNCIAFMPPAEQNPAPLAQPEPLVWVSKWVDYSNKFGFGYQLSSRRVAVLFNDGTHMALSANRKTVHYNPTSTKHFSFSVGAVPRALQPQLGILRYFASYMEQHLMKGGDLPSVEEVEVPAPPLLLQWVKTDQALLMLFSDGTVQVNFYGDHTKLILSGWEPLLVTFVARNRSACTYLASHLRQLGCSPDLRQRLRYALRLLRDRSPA
- assay.notes: kinase selectivity panel
- Format: biochemical
- assay.conditions: read-out: percentage of control activity (POC), Plk3
Assign remaining activity at 10 µM to each entry below.
Your answer is read as %, so omit the unit and give the number.

QUERY: Which remaining activity at 10 µM value belongs to CS(=O)(=O)N1CCN(c2ccc(Nc3ncc(C(N)=O)c(NC4CC4)n3)cc2)CC1 [compound 5] ?
RESULT: 63

QUERY: Entry under review: COc1c(NC(=O)c2ccc(C)c(-c3nnc4c(NCC(C)(C)C)nccn34)c2)cc(C(C)(C)C)cc1NS(C)(=O)=O [compound 7, reference compound] . Reported remaining activity at 10 µM?
RESULT: 104

QUERY: # remaining activity at 10 µM lookup, item CC(C)(C)N1CCC(c2cc(-c3ccc(F)cc3Cl)c3cc[n+]([O-])c(-c4c(Cl)cccc4Cl)c3n2)CC1 [compound 2]
RESULT: 111

QUERY: # lookup: remaining activity at 10 µM of Cc1ccc(C(=O)NCC2CC2)cc1-c1ccc2c(c1)NC(=O)C21CCCC1 [compound 3]
RESULT: 101

QUERY: # lookup: remaining activity at 10 µM of Cn1cc(-c2cccc(-c3nc(C(=O)NC4C5CC6CC4CC(O)(C6)C5)c(N)nc3N)c2)cn1 (centres unmarked) [compound 4]
RESULT: 95

###

- tested.target: c-RAF (Homo sapiens, UniProt P04049)
- Construct: purchased Eurofins Pharma Discovery Services (KinaseProfiler; Cerep BioPrint panel)
- Sequence (P04049 whole entry): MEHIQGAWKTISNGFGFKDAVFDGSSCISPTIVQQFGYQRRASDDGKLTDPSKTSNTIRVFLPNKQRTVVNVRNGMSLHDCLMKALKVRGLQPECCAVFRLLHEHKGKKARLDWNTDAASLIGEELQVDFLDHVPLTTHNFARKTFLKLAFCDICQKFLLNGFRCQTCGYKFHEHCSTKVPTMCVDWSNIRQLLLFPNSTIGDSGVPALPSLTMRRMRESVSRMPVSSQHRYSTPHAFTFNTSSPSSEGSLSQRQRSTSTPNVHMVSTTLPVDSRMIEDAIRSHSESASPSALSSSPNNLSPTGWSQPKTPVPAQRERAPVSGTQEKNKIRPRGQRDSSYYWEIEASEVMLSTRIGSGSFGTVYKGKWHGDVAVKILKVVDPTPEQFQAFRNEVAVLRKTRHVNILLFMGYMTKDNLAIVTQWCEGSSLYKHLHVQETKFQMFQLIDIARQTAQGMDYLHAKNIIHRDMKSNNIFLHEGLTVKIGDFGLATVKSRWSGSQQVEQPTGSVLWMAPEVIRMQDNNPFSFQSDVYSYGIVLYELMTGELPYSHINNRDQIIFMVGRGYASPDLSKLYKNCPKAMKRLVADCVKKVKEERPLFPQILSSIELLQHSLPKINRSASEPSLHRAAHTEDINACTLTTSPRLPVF
- assay.notes: kinase selectivity panel
- Type: biochemical
- assay.conditions: read-out: percentage of control activity (POC), c-RAF
Exam item: assign 1.0 to entries whose remaining activity at 10 µM is below 60% and 0.0 to entries at or above 60%. Note that a value of exactly 60% receives 0.0.

QUERY: Quick check: does CS(=O)(=O)N1CCN(c2ccc(Nc3ncc(C(N)=O)c(NC4CC4)n3)cc2)CC1 have remaining activity at 10 µM under 60%?
RESULT: 1.0

QUERY: API: query returns whether the compound falls strictly under 60% in remaining activity at 10 µM. Query: CC(C)(C)N1CCC(c2cc(-c3ccc(F)cc3Cl)c3cc[n+]([O-])c(-c4c(Cl)cccc4Cl)c3n2)CC1
RESULT: 0.0

QUERY: Please check: remaining activity at 10 µM for Cc1ccc(C(=O)NCC2CC2)cc1-c1ccc2c(c1)NC(=O)C21CCCC1 , strictly under 60% or not?
RESULT: 1.0

QUERY: Threshold test, remaining activity at 10 µM < 60%: Cn1cc(-c2cccc(-c3nc(C(=O)NC4C5CC6CC4CC(O)(C6)C5)c(N)nc3N)c2)cn1 (centres unmarked)
RESULT: 1.0

###

- tested.target: Fer (Homo sapiens, UniProt P16591)
- Construct: purchased Eurofins Pharma Discovery Services (KinaseProfiler; Cerep BioPrint panel)
- Sequence (P16591 whole entry): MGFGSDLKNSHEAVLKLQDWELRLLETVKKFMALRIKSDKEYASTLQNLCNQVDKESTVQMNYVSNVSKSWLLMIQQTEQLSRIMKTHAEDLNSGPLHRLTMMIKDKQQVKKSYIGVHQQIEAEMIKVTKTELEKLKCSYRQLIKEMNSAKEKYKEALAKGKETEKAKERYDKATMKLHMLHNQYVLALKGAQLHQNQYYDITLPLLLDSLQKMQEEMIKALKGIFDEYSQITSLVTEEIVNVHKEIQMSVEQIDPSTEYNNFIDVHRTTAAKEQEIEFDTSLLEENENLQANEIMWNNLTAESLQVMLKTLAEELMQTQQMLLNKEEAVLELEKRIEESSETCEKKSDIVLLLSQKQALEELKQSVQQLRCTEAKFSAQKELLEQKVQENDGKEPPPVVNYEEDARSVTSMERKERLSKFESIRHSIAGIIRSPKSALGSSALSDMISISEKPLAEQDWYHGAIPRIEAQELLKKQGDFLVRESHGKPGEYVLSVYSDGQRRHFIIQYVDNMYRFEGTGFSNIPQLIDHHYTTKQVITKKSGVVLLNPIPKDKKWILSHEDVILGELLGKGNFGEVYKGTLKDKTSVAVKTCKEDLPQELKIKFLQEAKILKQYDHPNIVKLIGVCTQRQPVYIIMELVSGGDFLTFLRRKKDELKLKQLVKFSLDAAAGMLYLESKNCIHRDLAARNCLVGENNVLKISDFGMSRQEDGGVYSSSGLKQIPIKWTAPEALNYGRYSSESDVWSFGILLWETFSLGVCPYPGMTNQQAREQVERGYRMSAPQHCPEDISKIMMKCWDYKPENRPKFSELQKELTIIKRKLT
- assay.notes: kinase selectivity panel
- Format: biochemical
- assay.conditions: read-out: percentage of control activity (POC), Fer
Can you tell me remaining activity at 10 µM for the items I'm about to list?
Could you give me the number in %? Just the number is fine.

QUERY: What value of remaining activity at 10 µM has been reported for the following compound? CC(C)(C)N1CCC(c2cc(-c3ccc(F)cc3Cl)c3cc[n+]([O-])c(-c4c(Cl)cccc4Cl)c3n2)CC1
RESULT: 109

QUERY: Fill blank: measured remaining activity at 10 µM of the compound Cn1cc(-c2cccc(-c3nc(C(=O)NC4C5CC6CC4CC(O)(C6)C5)c(N)nc3N)c2)cn1 (centres unmarked) is ____.
RESULT: 99

QUERY: Need remaining activity at 10 µM of COc1c(NC(=O)c2ccc(C)c(-c3nnc4c(NCC(C)(C)C)nccn34)c2)cc(C(C)(C)C)cc1NS(C)(=O)=O [compound 7, reference compound] , thanks.
RESULT: 105

QUERY: What remaining activity at 10 µM value was documented for this compound, CS(=O)(=O)N1CCN(c2ccc(Nc3ncc(C(N)=O)c(NC4CC4)n3)cc2)CC1 ?
RESULT: 14

QUERY: // returns reported remaining activity at 10 µM for input Cc1ccc(C(=O)NCC2CC2)cc1-c1ccc2c(c1)NC(=O)C21CCCC1
RESULT: 102

###

- tested.target: Lck (Homo sapiens)
- Construct: Eurofins Pharma Discovery Services (contract assay service)
- Sequence (P06239 whole entry, species assumed): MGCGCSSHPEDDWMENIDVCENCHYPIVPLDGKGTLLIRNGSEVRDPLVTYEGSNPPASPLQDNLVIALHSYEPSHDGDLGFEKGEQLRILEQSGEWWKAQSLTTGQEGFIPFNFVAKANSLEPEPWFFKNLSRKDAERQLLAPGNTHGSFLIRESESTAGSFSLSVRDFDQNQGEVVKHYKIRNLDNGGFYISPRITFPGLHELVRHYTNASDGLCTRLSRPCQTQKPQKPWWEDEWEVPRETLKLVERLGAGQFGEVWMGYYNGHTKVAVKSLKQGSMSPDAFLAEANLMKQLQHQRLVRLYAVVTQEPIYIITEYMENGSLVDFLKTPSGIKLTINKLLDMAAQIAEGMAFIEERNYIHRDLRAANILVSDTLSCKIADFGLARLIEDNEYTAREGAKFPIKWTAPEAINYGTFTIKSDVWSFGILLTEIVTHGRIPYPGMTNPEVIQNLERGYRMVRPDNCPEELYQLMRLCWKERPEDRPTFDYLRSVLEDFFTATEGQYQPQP
- assay.notes: kinase selectivity panel
- Assay type: biochemical
- assay.conditions: 10 μM; read-out: percentage of control activity (POC), Lck
// boundary case: remaining activity at 10 µM equal to 80% maps to criterion not met; strictly smaller maps to criterion met

QUERY: Regarding Cn1cc(-c2cccc(-c3nc(C(=O)NC4C5CC6CC4CC(O)(C6)C5)c(N)nc3N)c2)cn1 (centres unmarked) , kindly confirm whether its remaining activity at 10 µM is beneath 80%.
RESULT: criterion met

QUERY: Hi there! Is remaining activity at 10 µM for CS(=O)(=O)N1CCN(c2ccc(Nc3ncc(C(N)=O)c(NC4CC4)n3)cc2)CC1 below 80%, do you know?
RESULT: criterion met

QUERY: Consider the compound Cc1ccc(C(=O)NCC2CC2)cc1-c1ccc2c(c1)NC(=O)C21CCCC1 . Is its remaining activity at 10 µM strictly less than 80%?
RESULT: criterion not met

QUERY: Find out if reported remaining activity at 10 µM for CC(C)(C)N1CCC(c2cc(-c3ccc(F)cc3Cl)c3cc[n+]([O-])c(-c4c(Cl)cccc4Cl)c3n2)CC1 is less than 80%
RESULT: criterion not met
